- measurement-target: T1, KLK4_(S207A) (human, UniProt Q9Y5K2 31-254, S207A)
- T1 construct: Kallikrein-related peptidase 4 (KLK4), human, UniProtKB Q9Y5K2; peptidase domain left after thermolysin removed the pro-peptide S27CSQ30 (begins at residue 31); S207 is Ser195 in chymotrypsin numbering; also called KLK_(S207); not shown: FLAG, N-terminal, cleaved
- T1 sequence (Q9Y5K2 31-254 S207A): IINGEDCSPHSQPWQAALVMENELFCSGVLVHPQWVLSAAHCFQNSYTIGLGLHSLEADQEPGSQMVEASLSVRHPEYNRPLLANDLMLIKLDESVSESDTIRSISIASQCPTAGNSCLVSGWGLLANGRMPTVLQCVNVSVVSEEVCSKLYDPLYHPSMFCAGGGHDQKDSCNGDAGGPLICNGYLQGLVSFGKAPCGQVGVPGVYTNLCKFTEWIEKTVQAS
- assay-procedure: SPR; ProteOn XPR36; biotinylated PAR1 peptide immobilised on an NLC chip via NeutrAvidin-biotin (2600 RU); KLK4 variants flowed over in PBST at 30 µL/min for 818 s, dissociation 30 min (166 min for KLK4 S207A,L185D); 25 °C; empty channel subtracted; 1:1 Langmuir kinetic model
- condition-notes: both partners purified
Primed or numbered codes have the meaning given here. The star is where a group is joined. Biotin = O=C1N[C@H]2[C@H](CS[C@H]2CCCCC(=O)*)N1; FITC′ = not defined here
recorded-endpoint: pKd
Scale explanation: pKd corresponds to minus log10 of a concentration expressed in moles per litre.

-- ask Given the binder Biotin-SKATNATLDPRSFLLRNPNDKYEPFWED-{FITC′} (also called PAR1 extracellular peptide; source: synthetic peptide, bought: Peptron, Daejeon, Korea (>95%)) [biotinylated PAR1 peptide (biotin-31SKATNATLDPRSFLLRNPNDKYEPFWED58-FITC)] , write its reported pKd.
-- reply 5.95

# credit: paper PMC8352894
